Target: VHL Elongin B/C complex (Homo sapiens (Human))
Assay: Fluorescence Polarization (FP) VHL Binding Assay
Details: VHL binding, FP assay; geometric mean where more than one measurement
observationType: IC50

# compound, measuredOn, observationType, observed
records = [
    ("Cc1cc(C(C(=O)N2C[C@H](O)CC2C2=NC(=O)C(C)(c3ccc(-c4cccnc4C)cc3)N2)C(C)C)on1 (single isomer, unassigned) [Example 106.3]", "VHL Elongin B/C complex (Homo sapiens (Human))", "IC50", "> 400 µM"),
    ("Cc1ncsc1-c1ccc([C@]2(C)NC(C3C[C@@H](O)CN3C(=O)C(c3cc(OCCCCCNC(=O)c4cc5c(cc4CS(C)(=O)=O)-c4cn(C)c(=O)c6[nH]cc(c46)CN5c4ncc(F)cc4F)no3)C(C)C)=NC2=O)cc1 (single isomer, unassigned) [Example 1001.3]", "VHL Elongin B/C complex (Homo sapiens (Human))", "IC50", "> 100 µM"),
    ("Cc1ncsc1-c1ccc([C@]2(C)NC(C3C[C@@H](O)CN3C(=O)C3N(S(C)(=O)=O)CCC3(C)C)=NC2=O)cc1 (single isomer, unassigned) [Example 125.2]", "VHL Elongin B/C complex (Homo sapiens (Human))", "IC50", "≥ 400 µM"),
    ("Cc1noc(C(C(=O)N2C[C@H](O)CC2C2=NC(=O)[C@](C)(c3ccc(-c4scnc4C)cc3)N2)C(C)C)n1 (single isomer, unassigned) [Example 117.3]", "VHL Elongin B/C complex (Homo sapiens (Human))", "IC50", "≥ 400 µM"),
]

###

Kd by entry:
Molecular target: VHL co-expressed with Elongins B and C (Homo sapiens (Human))
Sequence (P40337 whole entry, looked up): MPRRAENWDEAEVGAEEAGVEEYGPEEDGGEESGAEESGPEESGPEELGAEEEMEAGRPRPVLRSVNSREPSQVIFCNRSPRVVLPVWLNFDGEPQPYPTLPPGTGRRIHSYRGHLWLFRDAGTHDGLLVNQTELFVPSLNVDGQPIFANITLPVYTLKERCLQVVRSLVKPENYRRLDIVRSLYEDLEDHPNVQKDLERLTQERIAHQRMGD
Sequence (Q15370 whole entry partner, looked up): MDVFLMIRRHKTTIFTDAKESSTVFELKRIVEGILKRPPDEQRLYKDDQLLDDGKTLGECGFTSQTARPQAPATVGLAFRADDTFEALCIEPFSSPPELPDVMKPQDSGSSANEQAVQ
Sequence (Q15369 whole entry partner, looked up): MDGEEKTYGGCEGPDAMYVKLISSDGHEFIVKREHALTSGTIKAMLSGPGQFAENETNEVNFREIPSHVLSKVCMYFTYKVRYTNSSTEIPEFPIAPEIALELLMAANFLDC
Experiment: Surface Plasmon Resonance Assay
Assay type: binding
Conditions: SPR measured VHL affinity; geometric mean where more than one measurement

# compound, Kd
data = [
    ("Cc1cc([C@@H](C(=O)N2C[C@H](O)C[C@H]2C2=NOC(C)(C)N2)C(C)C)on1 [Example 126.2]", "≥ 150 µM"),
    ("CC(=O)N1CCCCC1C(=O)N1C[C@H](O)CC1C1=NC(=O)[C@](C)(c2ccc(-c3scnc3C)cc2)N1 (single isomer, unassigned) [Example 124.1]", "≥ 150 µM"),
    ("Cc1cc(C(C(=O)N2C[C@H](O)CC2C2=NC(C)(C)C(C)(C)N2)C(C)C)on1 (stereo partly drawn) [Example 136.1]", "≥ 150 µM"),
]

###

IC50 by entry:
Target: NanoLuc VHL fusion protein (Homo sapiens (Human))
Experiment: VHL HEK-293 BRET Assay (NanoBRET Target Engagement)
Assay type: cell-based
Settings: geometric mean where more than one measurement
observationType: IC50 (µM)

# molecule, measuredOn, resultOperator, observed
measured = [
    ("Cc1cc([C@H](C(=O)N2C[C@H](O)C[C@H]2C2=NOC(C)(c3ccccc3)N2)C(C)C)on1 (single isomer, unassigned) [Example 128.4]", "NanoLuc VHL fusion protein (Homo sapiens (Human))", "=", 24.5),
    ("Cc1ncsc1-c1ccc([C@]2(C)NC(C3C[C@@H](O)CN3C(=O)C(c3cnn(C)c3)C(C)C)=NC2=O)cc1 (single isomer, unassigned) [Example 110.4]", "NanoLuc VHL fusion protein (Homo sapiens (Human))", "≥", 100),
    ("C#Cc1cccc(Nc2ncnc3cc(OCCOC)c(OCCOCC#CC#CCOc4cc(C(C(=O)N5C[C@H](O)CC5C5=NC(=O)[C@](C)(c6ccc(-c7scnc7C)cc6)N5)C(C)C)on4)cc23)c1 (single isomer, unassigned) [Example 1004.3]", "NanoLuc VHL fusion protein (Homo sapiens (Human))", "≥", 100),
    ("Cc1cc([C@@H](C(=O)N2C[C@H](O)C[C@H]2C2=NOC(C)(c3ccc(Br)cc3)N2)C(C)C)on1 (mixture of isomers)", "NanoLuc VHL fusion protein (Homo sapiens (Human))", "=", 96.9),
    ("Cc1cc(C(C(=O)N2C[C@H](O)CC2C2=NC(=O)[C@](C)(c3ccc(-c4scnc4C)cc3)N2)C(C)C)sn1 (single isomer, unassigned) [Example 119.2]", "NanoLuc VHL fusion protein (Homo sapiens (Human))", "=", 100),
    ("Cc1ncsc1-c1ccc([C@]2(C)NC(C3C[C@@H](O)CN3C(=O)C(c3cc(O)no3)C(C)C)=NC2=O)cc1 (single isomer, unassigned) [Example 116.1]", "NanoLuc VHL fusion protein (Homo sapiens (Human))", "=", 100),
    ("Cc1noc(C(C(=O)N2C[C@H](O)CC2C2=NC(=O)[C@](C)(c3ccc(-c4scnc4C)cc3)N2)C(C)C)n1 (single isomer, unassigned) [Example 117.4]", "NanoLuc VHL fusion protein (Homo sapiens (Human))", "=", 100),
    ("Cc1ncsc1-c1ccc([C@]2(C)NC(C3C[C@@H](O)CN3C(=O)C(c3cnn(C)c3)C(C)C)=NC2=O)cc1 (single isomer, unassigned) [Example 110.3]", "NanoLuc VHL fusion protein (Homo sapiens (Human))", "≥", 100),
]
